Provenance of the data: PubChem BioAssay

Molecular target: Carbonic anhydrase 2 (Homo sapiens)
Experiment: CAII small-molecule binders, profiling panel, biochemical, small-molecule microarray, Alexa647-labelled CAII (AID 1122)
Details: CAII-A647 binding fluorescence, higher = more signal
Please mark condition met if the recorded composite z-score is equal to or greater than 0.4, and condition not met if it falls below.

Past entries and their recorded results:
# Molecule, Label value
measured = [
    ("C[C@]1(C(=O)NCC(F)(F)F)c2ccccc2C(=O)N(Cc2ccc(OC(F)(F)F)cc2)[C@H]1c1ccc(CO)cc1", "condition met"),
    ("CC(=O)NCCCC[C@@H]1NC(=O)[C@H]2C[C@@H](C(=O)NCCCCCC[N+](C)(C)C)[C@@H](c3ccc(O)cc3)N2C1=O", "condition met"),
    ("CCCCC(=C=CC[C@H](O)c1ccc(OCCO)cc1)C[C@H](O)c1ccccn1", "condition met"),
    ("[N-]=[N+]=Nc1ccccc1[C@@H]1OC(c2ccc(OCCCO)cc2)=N[C@]1(Cc1ccccc1)C(N)=O", "condition met"),
    ("O=C1c2ccccc2[C@](Cc2ccccc2I)(C(=O)O)[C@H](c2ccc(CO)cc2)N1Cc1ccccc1", "condition met"),
]

Assess whether reported composite z-score for CC(C)C[C@H]1NC(=O)[C@H](Cc2ccccc2)NC(=O)[C@@]23C(=O)N[C@@H](Cc4ccccc4)C2[C@H](C)[C@@]2(C)O[C@H]2C3/C=C/C/C=C\CNC1=O (some centres undefined) sits at 0.4 or higher. condition met

Assess whether reported composite z-score for "C=CCOC(=O)[C@H]1[C@@H]2C(=O)O[C@@H](c3ccccc3)[C@@H](c3ccccc3)N2[C@@H](c2ccc(OCCOC(=O)[C@@H]3C[C@@H]4C(=O)N[C@@H](Cc5ccccc5)C(=O)N4[C@@H]3c3ccc(O)cc3)cc2)[C@]12C(=O)Nc1ccccc12" sits at 0.4 or higher. condition met

Assess whether reported composite z-score for "COC(=O)[C@@]1(Cc2ccccc2)[C@H]2c3cc(C(=O)N4CCCC4)n(Cc4ccc(C(F)(F)F)nc4)c3C[C@H]2CN1C(=O)c1ccccc1" sits at 0.4 or higher. condition met

Assess whether reported composite z-score for "CCCCC(=C=CC[C@@H](O)c1ccc(OCCO)cc1)C[C@@H](O)c1ccccn1" sits at 0.4 or higher. condition not met

Assess whether reported composite z-score for C=CCC(OC(C)=O)[C@@H]1[C@@H](N(Cc2ccc(-c3ccccc3)cc2)C(=O)c2ccc(-c3ccccc3)cc2)c2cc(OCCCO)ccc2N1C(=O)c1ccc2ccccc2n1 (some centres undefined) sits at 0.4 or higher. condition not met
